- tgt: human Ang2 (Homo sapiens, UniProt O15123)
- Construct: purchased R&D Systems 623-AN-025/CF
- Sequence (O15123 19-496): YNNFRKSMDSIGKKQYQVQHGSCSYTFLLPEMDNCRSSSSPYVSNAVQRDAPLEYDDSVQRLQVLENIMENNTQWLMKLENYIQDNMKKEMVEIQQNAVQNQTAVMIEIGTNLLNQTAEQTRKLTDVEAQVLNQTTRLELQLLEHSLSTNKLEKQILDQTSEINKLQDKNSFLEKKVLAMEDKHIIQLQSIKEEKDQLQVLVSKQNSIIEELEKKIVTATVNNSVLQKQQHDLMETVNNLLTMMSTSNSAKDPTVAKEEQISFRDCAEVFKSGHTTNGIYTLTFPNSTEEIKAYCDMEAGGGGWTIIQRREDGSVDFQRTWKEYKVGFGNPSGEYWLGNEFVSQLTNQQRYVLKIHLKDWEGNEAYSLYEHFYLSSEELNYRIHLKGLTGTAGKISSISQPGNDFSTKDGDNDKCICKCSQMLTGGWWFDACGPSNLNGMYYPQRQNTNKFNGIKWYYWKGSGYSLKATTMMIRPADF
- assay_procedure: BIACORE (SPR) binding of peptides to immobilized recombinant Ang2
- particulars: CM5 chip, 10-50 μM peptide
test_readout: binding to immobilized Ang2 (in words)

entry_sequence="NEILKIHEKNSLLEHKILEMEGKHK (Ac-NEILKIHEKNSLLEHKILEMEGKHK-NH2) [CGEN-H7, amino acid residues 182-206 of angiopoietin 1]" reported_measurement="none or low binding"
entry_sequence="TNNSVLQKQQL (Ac-TNNSVLQKQQL-NH2) [CGEN-H3, amino acid residues 242-252 of angiopoietin 1]" reported_measurement="none or low binding"
